Tested on: Bacillus cereus
Assay: Antibacterial activity against drug-sensitive Bacillus cereus ATCC 10876 by broth microdilution method
Assay type: functional
REPORTED PROPERTY: MIC
Answer as a quantity: numeral, then unit.

>  <SUBSTANCE SMILES>
Clc1ccc(Nc2nn3c(-c4cccc(Cl)c4)nnc3s2)cc1

>  <TGT>
Bacillus cereus

>  <MIC>
7.81 µg/mL

$$$$
>  <SUBSTANCE SMILES>
Clc1ccc(Nc2nn3c(-c4ccc(Cl)cc4)nnc3s2)cc1

>  <TGT>
Bacillus cereus

>  <MIC>
7.81 µg/mL

$$$$
>  <SUBSTANCE SMILES>
Clc1ccccc1-c1nnc2sc(Nc3ccc(Br)cc3)nn12

>  <TGT>
Bacillus cereus

>  <MIC>
7.81 µg/mL

$$$$

In: Please report the measured MIC for Clc1cccc(-c2nnc3sc(Nc4ccc(Br)cc4)nn23)c1 tested on Bacillus cereus.
Out: 15.6 µg/mL

In: // fetch MIC; item: Brc1ccc(Nc2nn3c(-c4ccccc4)nnc3s2)cc1 ; system: Bacillus cereus
Out: 15.6 µg/mL

In: Please indicate recorded MIC of CO/N=C(\C(=O)N[C@@H]1C(=O)N2C(C(=O)O)=C(COC(N)=O)CS[C@H]12)c1ccco1 measured with Bacillus cereus.
Out: 31.2 µg/mL

In: Please tell me the measured MIC for CN[C@H](CC(C)C)C(=O)N[C@H]1C(=O)N[C@@H](CC(N)=O)C(=O)N[C@H]2C(=O)N[C@H]3C(=O)N[C@H](C(=O)N[C@H](C(=O)O)c4cc(O)cc(O)c4-c4cc3ccc4O)[C@H](O)c3ccc(c(Cl)c3)Oc3cc2cc(c3O[C@@H]2O[C@H](CO)[C@@H](O)[C@H](O)[C@H]2O[C@H]2C[C@](C)(N)[C@H](O)[C@H](C)O2)Oc2ccc(cc2Cl)[C@H]1O ; system: Bacillus cereus.
Out: 0.98 µg/mL
